Multiple publications report Ki for Coagulation factor X (Homo sapiens, UniProt P00742); what follows is a combined list.

1. C/C(=C\S(=O)(=O)N(Cc1nccn1C)[C@H]1CCN(c2ccc(C(=O)N(C)C)cc2F)C1=O)c1ccc(Cl)s1    < 10 nM
2. CC(C)(C)OC(=O)NC(Cc1cccs1)C(=O)N1CCCC1C(=O)NC(Cc1cccc(C#N)c1)B1OC2CC3CC(C3(C)C)C2(C)O1 (stereo not shown)    < 500 nM
3. Cc1nc(Cc2ccccc2)n(CC(=O)N[C@@H](CCCCN)B2O[C@@H]3C[C@@H]4C[C@@H](C4(C)C)[C@]3(C)O2)n1    500 to 50000 nM
4. CC(C)(C)OC(=O)N[C@H](Cc1ccccn1)C(=O)N1CCCC1C(=O)NC(Cc1cccc(C#N)c1)B1OC2CC3CC(C3(C)C)C2(C)O1 (stereo partly shown)    < 500 nM
5. CC1(C)C2CC3OB([C@H](CCCCN)NC(=O)Cn4nc(Cc5ccccc5)nc4Cc4ccccc4)OC3(C)C1C2 (stereo partly shown)    500 to 50000 nM
6. COc1ccc(-n2nc(C(N)=O)cc2C(=O)N(C)C2CCN(N3CCOCC3=O)CC2)cc1    50 to 1000 nM

Then there is this compound:
Value sought: Ki, system Coagulation factor X (Homo sapiens, UniProt P00742), item NCCCC[C@H](NC(=O)c1ccc(-c2ccccc2)nc1)B(O)O . Result: 500 to 50000 nM
